What TG was measured for each of the following?
# Tested on: differentiated adipocytes
# EXPERIMENT: Hallmark genes and triglycerides in differentiated adipocytes
# Format: cell-based, human
# MEASUREMENT CONDITIONS: Table 28; differentiated adipocytes transfected day nine post-differentiation; 250 nM oligonucleotide
In the oligonucleotide strings, read from the 5' end, every base follows the letter of its sugar. An asterisk marks phosphorothioate; unmarked linkages are phosphodiester. Other units and linkages are bracketed, terminal groups are in braces. A string of capitals states the bases alone. e = 2'-O-(2-methoxyethyl) (MOE); [5mC] = 5-methylcytosine

Answered examples (4):
327933 (antisense eA*eA*eG*eG*eG*eA*eT*eT*e[5mC]*e[5mC]*eT*eG*eG*eG*eA*eA*eA*eA*e[5mC]*eT*eG*eG*eA*e[5mC]) [compound 327933]    1.63
327889 (antisense eG*eT*eG*eG*eT*eA*eA*eT*e[5mC]*e[5mC]*e[5mC]*eT*eG*eG*e[5mC]*eA*eA*eT*eG*eT*eG*eA*eT) [compound 327889]    1.09
327954 (antisense eA*e[5mC]*eA*eA*eA*eG*eT*eT*e[5mC]*eT*eG*eT*eG*eA*eT*eG*e[5mC]*eA*e[5mC]*eT*eG*eA) [compound 327954]    1.46
327903 (antisense eA*eA*e[5mC]*eT*eA*eT*eA*e[5mC]*eA*eA*e[5mC]*e[5mC]*eT*eA*e[5mC]*eT*eA*e[5mC]*e[5mC]*eT*e[5mC]*eA) [compound 327903]    1.12

input: For the record 327890 (antisense eA*eG*e[5mC]*eA*e[5mC]*eA*eA*eA*e[5mC]*eT*eA*e[5mC]*eT*eA*e[5mC]*e[5mC]*eT*e[5mC]*eA) [compound 327890] , what value of TG is listed for differentiated adipocytes?
output: 1.13

###

# Tested on: BJ, B16-F10, T47D, T47Dp53 and HeLa cells
# EXPERIMENT: Cell cycle assay (propidium iodide flow cytometry), cell line panel
# Type: cell-based
# MEASUREMENT CONDITIONS: 150 nM oligomeric compound, 4.5 μg/ml LIPOFECTIN, after 72 hours, propidium iodide flow cytometry
In the oligonucleotide strings, read from the 5' end, every base follows the letter of its sugar. An asterisk marks phosphorothioate; unmarked linkages are phosphodiester. Other units and linkages are bracketed, terminal groups are in braces. A string of capitals states the bases alone. e = 2'-O-(2-methoxyethyl) (MOE); [5mC] = 5-methylcytosine; d = 2'-deoxy (DNA)
METRIC: G2/M (percentage of cells in phase of the cell cycle) (%)
One number for each entry, in %.

327914 (antisense eG*e[5mC]*e[5mC]*e[5mC]*eT*eT*eT*eT*eA*eA*e[5mC]*eA*eT*eT*eG*e[5mC]*eA*e[5mC]*eT*eG) [compound 327914]    15.3
327909 (antisense e[5mC]*e[5mC]*e[5mC]*eA*eA*e[5mC]*eA*eA*e[5mC]*eA*eT*eG*eA*eA*eA*e[5mC]*eT*eA*e[5mC]*e[5mC]*eT*eA) [compound 327909]    17.3
328697 (eG*e[5mC]*eT*eT*eG*dT*d[5mC]*d[5mC]*dA*d[5mC]*dA*d[5mC]*dA*dG*dT*eT*e[5mC]*eA*eA*e[5mC]; antisense) [compound 328697]    16

Each substance below has a reported value. Please supply its G2/M (percentage of cells in phase of the cell cycle).
1. 328364 (eT*e[5mC]*eT*eT*eA*dA*dG*dT*d[5mC]*dA*d[5mC]*dA*dA*dA*dT*e[5mC]*eA*eG*e[5mC]*eA) [compound 328364]
2. 328388 (eT*e[5mC]*e[5mC]*e[5mC]*eA*dT*dA*dG*d[5mC]*dA*dG*dG*dG*d[5mC]*dA*eG*eA*eG*e[5mC]*e[5mC]; antisense) [compound 328388]

output:
1. 14.3
2. 14.6

###

# Tested on: HeLa cells
# EXPERIMENT: Cell cycle assay in HeLa cells
# Format: cell-based, human
# MEASUREMENT CONDITIONS: HeLa cells, 150 nM oligomeric compound, 48 hours after treatment; relative to untreated control (UTC=100)
In the oligonucleotide strings, read from the 5' end, every base follows the letter of its sugar. An asterisk marks phosphorothioate; unmarked linkages are phosphodiester. Other units and linkages are bracketed, terminal groups are in braces. A string of capitals states the bases alone. e = 2'-O-(2-methoxyethyl) (MOE); [5mC] = 5-methylcytosine; d = 2'-deoxy (DNA)
METRIC: % cells in cell cycle phase: subG1 (%)
Answers are plain numbers, in %.

328342 (e[5mC]*eA*eA*eT*eT*dG*d[5mC]*dG*d[5mC]*dT*dA*d[5mC]*dA*dG*dA*eA*e[5mC]*eT*eG*eT) [compound 328342]    189
341788 (antisense AGCCAAGCTCAGACGGATCCGA; all 2'-MOE, all phosphorothioate, methylation of C not given here) [compound 341788]    748
338713 (antisense ACCTCTCAGGAAGACGGACT; all 2'-MOE, all phosphorothioate, methylation of C not given here) [compound 338713]    426
327919 (antisense eG*eA*eA*eA*e[5mC]*e[5mC]*e[5mC]*eA*eG*e[5mC]*eA*eG*eA*e[5mC]*eA*eA*eT*eG*eT*eA*eG*e[5mC]*eT) [compound 327919]    104

# ---- query substance ----
input: Given the entry 338637 (antisense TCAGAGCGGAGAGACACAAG; all 2'-MOE, all phosphorothioate, methylation of C not given here) [compound 338637] , report its measured % cells in cell cycle phase: subG1.
output: 239

###

# Test system: aP2
# EXPERIMENT: aP2 mRNA expression in adipocytes (real-time PCR)
# Assay type: cell-based, human
# MEASUREMENT CONDITIONS: Table 18; differentiating adipocytes; control = treatment with ISIS 342673
In the oligonucleotide strings, read from the 5' end, every base follows the letter of its sugar. An asterisk marks phosphorothioate; unmarked linkages are phosphodiester. Other units and linkages are bracketed, terminal groups are in braces. A string of capitals states the bases alone. e = 2'-O-(2-methoxyethyl) (MOE); [5mC] = 5-methylcytosine
Give AP2 mRNA for every item shown.

Reference set, count: 2
327969 (antisense eT*eG*eT*eG*eA*eG*eT*eT*e[5mC]*eT*eA*e[5mC]*e[5mC]*eA*eT*eT*eG*e[5mC]*e[5mC]*eA*eA*eA) [compound 327969]    59.8 percentage of control
328100 (antisense eA*eA*eT*e[5mC]*eT*e[5mC]*eT*eG*e[5mC]*eA*eG*eG*e[5mC]*eA*eA*eA*eT*eG*eT*eG*eA) [compound 328100]    61.9 percentage of control

Turning now to a further record.
input: Need AP2 mRNA, item 328099 (antisense eA*eA*eG*eA*eA*e[5mC]*eA*eT*eT*eA*eA*eG*e[5mC]*eA*eT*e[5mC]*eT*eG*eA*e[5mC]*eA) [compound 328099]
output: 85.9 percentage of control

###

# System: Glut4
# EXPERIMENT: Glut4 mRNA expression in adipocytes (real-time PCR)
# Assay type: cell-based, human
# MEASUREMENT CONDITIONS: differentiating adipocytes transfected with oligomeric compound; Table 75
# Experimental: Expression of the four hallmark genes, HSL, aP2, Glut4, and PPARγ, is also measured in adipocytes transfected with oligomeric compounds of the invention. Cells are lysed on day nine post-transfection and total RNA is harvested. The amount of total RNA in each sample is determined using a Ribogreen Assay (Invitrogen Life Technologies, Carlsbad, Calif.). […]
In the oligonucleotide strings, read from the 5' end, every base follows the letter of its sugar. An asterisk marks phosphorothioate; unmarked linkages are phosphodiester. Other units and linkages are bracketed, terminal groups are in braces. A string of capitals states the bases alone. e = 2'-O-(2-methoxyethyl) (MOE); [5mC] = 5-methylcytosine
Please respond with reported GLUT4 mRNA for every item in the list.

340350 (antisense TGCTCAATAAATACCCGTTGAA; all 2'-MOE, all phosphorothioate, methylation of C not given here) [compound 340350]    53 percentage of untreated control (UTC)
327895 (antisense eA*e[5mC]*eA*eA*eA*e[5mC]*eA*e[5mC]*e[5mC]*eA*eT*eT*eG*eT*e[5mC]*eA*e[5mC]*eA*e[5mC]*eT*e[5mC]*e[5mC]*eA) [compound 327895]    76 percentage of untreated control (UTC)

Then this substance:
input: API: value(readout=GLUT4 mRNA, system=Glut4) for record 341799 (antisense ACCUAAUAUAUCAAACAUAUCA; all 2'-MOE, all phosphorothioate, methylation of C and T or U not given here) [compound 341799]
output: 89 percentage of untreated control (UTC)

###

Exercise: state measured PPAR gamma mRNA for each of the substances provided.
# Tested on: PPARγ
# EXPERIMENT: PPARγ mRNA expression in adipocytes (real-time PCR)
# Type: cell-based, human
# MEASUREMENT CONDITIONS: differentiating adipocytes transfected with oligomeric compound; Table 75
In the oligonucleotide strings, read from the 5' end, every base follows the letter of its sugar. An asterisk marks phosphorothioate; unmarked linkages are phosphodiester. Other units and linkages are bracketed, terminal groups are in braces. A string of capitals states the bases alone. e = 2'-O-(2-methoxyethyl) (MOE); [5mC] = 5-methylcytosine

346691 (GCAGAAGCAUUUCCACACAC; all 2'-MOE, all phosphorothioate, methylation of C and T or U not given here) [compound 346691]    79 percentage of untreated control (UTC)
328133 (eT*eG*eA*eA*eG*eG*eT*eT*e[5mC]*eG*eG*eA*eG*eA*eT*eA*eG*eG*e[5mC]*eT*eA; anti-miR) [compound 328133]    53 percentage of untreated control (UTC)
328131 (antisense eA*eT*eA*eT*eG*eT*e[5mC]*eA*eT*eA*eT*e[5mC]*eA*eA*eA*e[5mC]*eT*e[5mC]*e[5mC]*eT*eA) [compound 328131]    55 percentage of untreated control (UTC)

Dear colleague, could you send me PPAR gamma mRNA for each of the items below? Thanks.
1. 346919 (CUACCUGCACGAACAGCACUUUG; all 2'-MOE, all phosphorothioate, methylation of C and T or U not given here) [compound 346919]
2. 328106 (antisense eA*eT*eT*eG*eA*eT*eG*e[5mC]*eG*e[5mC]*e[5mC]*eA*eT*eT*eT*eG*eG*e[5mC]*e[5mC]*eT*eA) [compound 328106]
3. 328128 (antisense eA*eG*eT*eA*eA*e[5mC]*eT*eT*e[5mC]*eT*eT*eG*e[5mC]*eA*eG*eT*eT*eG*eG*eA) [compound 328128]
4. 327970 (antisense eA*e[5mC]*eA*eA*eA*eG*eT*eT*e[5mC]*eT*eG*eT*eA*eG*eT*eG*e[5mC]*eA*e[5mC]*eT*eG*eA) [compound 327970]
5. 341803 (antisense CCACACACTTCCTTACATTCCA; all 2'-MOE, all phosphorothioate, methylation of C not given here) [compound 341803]
6. 346913 (AGAAAGGCAGCAGGUCGUAUAG; all 2'-MOE, all phosphorothioate, methylation of C and T or U not given here) [compound 346913]
7. 327950 (antisense eT*e[5mC]*eA*eG*eT*eT*eT*eT*eG*e[5mC]*eA*eT*eA*eG*eA*eT*eT*eT*eG*e[5mC]*eA*e[5mC]*eA) [compound 327950]

output:
["65 percentage of untreated control (UTC)", "81 percentage of untreated control (UTC)", "86 percentage of untreated control (UTC)", "46 percentage of untreated control (UTC)", "68 percentage of untreated control (UTC)", "59 percentage of untreated control (UTC)", "93 percentage of untreated control (UTC)"]

input: So what does the record say about PPAR gamma mRNA for 344617 (GACGGGUGCGAUUUCUGUGUGAGA; all 2'-MOE, all phosphorothioate, methylation of C and T or U not given here) [compound 344617] ?
output: 72 percentage of untreated control (UTC)
